experimental-conditions: in n-pentanol, 288.15 K
property-name: solubility (mole fraction)
Answer field: number only, no words.

Enquiry: Tell me solubility (mole fraction) reported for O=C(O)[C@@H]1C[C@@H](O)CN1
Return: 8.4e-05

* * *

experimental-conditions: in methyl acetate, 298.15 K
property-name: solubility (mole fraction)
Answer field: number only, no words.

Enquiry: Tell me solubility (mole fraction) reported for O=C(O)[C@@H]1C[C@@H](O)CN1
Return: 0.000116

* * *

experimental-conditions: in methanol, 288.15 K
property-name: solubility (mole fraction)
Answer field: number only, no words.

Enquiry: Tell me solubility (mole fraction) reported for O=C(O)[C@@H]1C[C@@H](O)CN1
Return: 0.000149
